Tested on: WI-38
Measurement Protocol: Anti viral activity against HCMV(AD169) in WI-38 cell monolayers
Type: functional
Condition Details: Homo sapiens, read-out: ID50 (the source's name)
pIC50: −log10 of the molar value.
We begin with a simple list: items and their reported pIC50.

A selection of reference data follows.
O=c1[nH]c(=O)n(C2CC(CO)C2CO)cc1/C=C/Br (racemic): < 3.52
O=c1[nH]c(=O)n([C@@H]2C[C@H](CO)C2CO)cc1/C=C/Br (stereo partly drawn): < 3.52

Here's the next entry for you.
Give the reported value of pIC50 for this record: O=c1[nH]c(=O)n([C@@H]2O[C@H](CO)[C@@H](O)[C@@H]2O)cc1/C=C/Br [SORIVUDINE]
< 3.54

Data origin: ChEMBL document CHEMBL1126039
